Values were extracted from PubChem BioAssay.

Assay: VP16 transactivation inhibitors, counter-screen for SRC1 inhibitor project, cell-based, luminescence, high throughput (AID 588824)
Settings: cell-based VP16 transactivation luciferase luminescence; at 3.6 µM
Active and inactive are the calls of the source. Cut-off read from the data, not from the text of the source: active = inhibition above about 25%; inactive = the rest.
Pick one: Y = active, N = inactive

Use the examples below as a reference point.
CC(C)(C)C(=O)/C(=C/c1ccncc1)n1cncn1; Y
C=CCSc1nsc(NC(=O)Nc2cccc(C(C)=O)c2)n1; Y
COc1ccc(N2CCN(C(=O)c3ccc(CS(=O)c4cccc(C)c4)o3)CC2)cc1 (stereo unspecified); N
O=C(NC(=O)N1CCN(c2cccc(Cl)c2)CC1)c1ccccc1; Y
O=C(N/N=C/c1cc([N+](=O)[O-])ccc1O)c1cccc(N2CCCC2=O)c1; N

Q: Called result for `COc1ccc(-c2ncncc2-c2ccccc2)c(O)c1`
A: N

* * *

Target: Nuclear receptor subfamily 5 group A member 2 (Homo sapiens)
Assay: LRH-1 (NR5A2) inverse agonists, retest, confirmation, cell-based, luminescence (AID 651613);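 note: HEK293T cells co-transfected with LRH-1 and StAR promoter luciferase reporter; 0% = vehicle wells and 100% = parental cells lacking receptor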
Settings: cell-based LRH-1 luciferase reporter, inverse agonism; at 3.6 µM; stronger effect = higher value
Parameter threshold = 60%. Response is true (1) when inhibition meets or exceeds it, else false (0).

CCOc1ccc(NC(=O)COC(=O)c2ncc(Cl)c(Cl)c2Cl)cc1; false (0)
Cc1cc(-n2c(C)cc(C(=O)CSc3ncnc4ccccc34)c2C)no1; true (1)
CC(C)(C)c1ccc(C(=O)Nc2ccc(C(=O)NCc3cccnc3)cc2)cc1; true (1)

Q: Item `COc1ccc(/C=N/NC(=O)c2ccc(NC(=O)c3cccc([N+](=O)[O-])c3)cc2)c(OC)c1` with inhibition of 60% or above?
A: false (0)

Q: Please check the record `Cc1cc(=O)oc2cc(O)cc(OCc3ccccc3)c12` and state if its inhibition is at or above 60%.
A: false (0)

Q: Record `O=C(Nc1ccc(S(=O)(=O)N2CCOCC2)cc1)c1cccc([N+](=O)[O-])c1` ; criterion: inhibition no lower than 60%. Met?
A: false (0)

* * *

Target: Nuclear receptor coactivator 2 (Homo sapiens) (UniProt Q15596)
Sequence (Q15596 whole entry, looked up): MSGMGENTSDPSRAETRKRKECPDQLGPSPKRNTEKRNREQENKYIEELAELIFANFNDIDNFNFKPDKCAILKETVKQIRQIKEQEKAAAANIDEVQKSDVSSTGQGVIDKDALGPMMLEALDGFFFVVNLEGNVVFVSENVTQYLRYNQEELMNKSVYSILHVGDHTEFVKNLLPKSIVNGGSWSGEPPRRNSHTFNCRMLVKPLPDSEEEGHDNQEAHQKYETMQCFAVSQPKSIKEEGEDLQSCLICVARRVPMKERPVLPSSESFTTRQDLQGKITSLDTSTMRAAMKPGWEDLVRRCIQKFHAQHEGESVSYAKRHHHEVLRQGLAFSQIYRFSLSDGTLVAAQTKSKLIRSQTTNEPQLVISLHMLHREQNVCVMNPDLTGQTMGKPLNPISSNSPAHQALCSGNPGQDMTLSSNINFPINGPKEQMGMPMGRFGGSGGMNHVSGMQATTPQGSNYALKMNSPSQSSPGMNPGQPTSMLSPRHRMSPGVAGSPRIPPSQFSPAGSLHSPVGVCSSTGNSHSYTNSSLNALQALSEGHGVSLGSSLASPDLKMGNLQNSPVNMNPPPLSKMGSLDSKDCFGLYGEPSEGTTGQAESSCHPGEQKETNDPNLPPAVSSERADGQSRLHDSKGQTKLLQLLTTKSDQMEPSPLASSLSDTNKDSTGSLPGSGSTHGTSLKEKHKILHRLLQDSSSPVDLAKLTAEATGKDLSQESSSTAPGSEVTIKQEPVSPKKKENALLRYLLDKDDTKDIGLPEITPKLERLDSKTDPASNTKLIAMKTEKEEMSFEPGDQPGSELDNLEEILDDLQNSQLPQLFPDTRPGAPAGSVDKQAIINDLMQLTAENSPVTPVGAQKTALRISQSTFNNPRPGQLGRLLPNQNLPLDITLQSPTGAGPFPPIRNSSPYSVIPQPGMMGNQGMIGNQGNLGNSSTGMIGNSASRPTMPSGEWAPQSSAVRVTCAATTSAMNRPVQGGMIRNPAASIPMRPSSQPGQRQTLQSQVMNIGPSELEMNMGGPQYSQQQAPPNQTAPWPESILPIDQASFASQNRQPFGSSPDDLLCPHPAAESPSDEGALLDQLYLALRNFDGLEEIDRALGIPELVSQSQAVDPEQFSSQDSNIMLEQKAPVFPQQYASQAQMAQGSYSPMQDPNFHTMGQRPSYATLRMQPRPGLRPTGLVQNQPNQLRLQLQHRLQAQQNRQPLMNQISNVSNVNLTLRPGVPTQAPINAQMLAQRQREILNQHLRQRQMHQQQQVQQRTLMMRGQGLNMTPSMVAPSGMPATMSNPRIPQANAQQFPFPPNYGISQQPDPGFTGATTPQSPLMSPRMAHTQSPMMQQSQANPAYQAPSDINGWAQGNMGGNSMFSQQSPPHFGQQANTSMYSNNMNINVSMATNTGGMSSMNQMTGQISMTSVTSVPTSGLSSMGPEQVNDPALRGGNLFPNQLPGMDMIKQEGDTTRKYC
Assay: SRC2 coactivator transcriptional activity inhibitors, confirmation, cell-based, luminescence, HEK293, triplicate (AID 652008);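 note: 0% = DMSO-treated cells and 100% = Gossypol at 36 µM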
Settings: HEK293 GAL4-SRC2 luciferase reporter, at 8.9 µM, stronger effect = higher value
inhibition below 20% gives n; inhibition at or above it gives y.

Use the examples below as a reference point.
Cc1ccc(C(=O)CN2C(=O)c3ccccc3S2(=O)=O)cc1; y
CCOc1ccccc1N1CCN(C(=O)c2cc(-c3cc(OC)ccc3OC)nc3ccccc23)CC1; n

Q: For this compound, is measured inhibition 20% or higher? `Cc1ccc(NC(=O)c2ccccc2NS(=O)(=O)c2ccc(F)cc2)cc1S(=O)(=O)N1CCCCC1`
A: y

Q: inhibition >= 20% for `Cc1cccnc1CN1CCN(C(=O)c2cc(COc3ccc4ncccc4c3)on2)CC1` ?
A: n

Q: Assess whether reported inhibition for `COc1ccc(NC(=O)CSCC(=O)Nc2ccccc2C(=O)N2CCCCC2)cc1` sits at 20% or higher.
A: n

Q: Threshold query (inhibition >= 20%) on `Nc1ncnc(N2CCc3ccccc32)c1[N+](=O)[O-]`
A: y

Q: Is the recorded value of inhibition equal to or greater than 20% for this compound? `CC(=O)OCCN1c2ccccc2Sc2cnccc21`
A: y
